Origin of measurements: PubChem BioAssay (NCI)

- System: KM12 colon
- Assay Summary: NCI tumour cell line growth inhibition, 48 h
Below, each entry is listed with its recorded TGI.

[
  {
    "Compound": "COC(=O)/C(C#N)=C1\\N=NNN1c1ccc(OC)cc1",
    "Study System": "KM12 colon",
    "TGI": "> 100 µM"
  },
  {
    "Compound": "COc1cc(Cl)cc(-c2nn(-c3cccc(NC(=O)c4ccc(N5CCOCC5)c(C(F)(F)F)c4)c3)cc2-c2ccncc2)c1",
    "Study System": "KM12 colon",
    "TGI": "> 100 µM"
  },
  {
    "Compound": "Cc1nn(-c2ccccc2)c2c1C(c1cc3ccccc3nc1Cl)NC(=O)N2 (stereo not given)",
    "Study System": "KM12 colon",
    "TGI": "53.1 µM"
  },
  {
    "Compound": "N#C/C(=C\\c1ccc2ccccc2c1)C(=O)c1ccccc1",
    "Study System": "KM12 colon",
    "TGI": "> 100 µM"
  },
  {
    "Compound": "CCNC(=S)NNC(=O)C12CC3CC(CC(C3)C1)C2",
    "Study System": "KM12 colon",
    "TGI": "> 100 µM"
  }
]

###

- Test system: UACC-62 melanoma
- Assay Summary: NCI tumour cell line growth inhibition, 48 h
Measured Quantity: log10(TGI) (log10 of the value in µM)

[
  {
    "Compound": "CC(C)(/C=C(\\C#N)C(=O)N1CCC[C@@H](n2nc(-c3ccc(Oc4ccccc4)cc3F)c3c(N)ncnc32)C1)N1CCN(C2COC2)CC1",
    "Study System": "UACC-62 melanoma",
    "log10(TGI)": 1.16
  },
  {
    "Compound": "CN(C)CC[C@H](CSc1ccccc1)Nc1ccc(S(=O)(=O)NC(=O)c2ccc(N3CCN(Cc4ccccc4-c4ccc(Cl)cc4)CC3)cc2)cc1[N+](=O)[O-]",
    "Study System": "UACC-62 melanoma",
    "log10(TGI)": 1.30
  },
  {
    "Compound": "Oc1cc(Cl)cc2cccnc12",
    "Study System": "UACC-62 melanoma",
    "log10(TGI)": 0.87
  },
  {
    "Compound": "CC1=CCC([C@@](C)(O)CCCC(C)(C)N=C=S)CC1 (some centres not stated)",
    "Study System": "UACC-62 melanoma",
    "log10(TGI)": 1.54
  },
  {
    "Compound": "CC(NCCC(c1ccccc1)c1ccccc1)c1ccccc1 (configuration not stated)",
    "Study System": "UACC-62 melanoma",
    "log10(TGI)": 0.55
  },
  {
    "Compound": "CN1CCC(=O)/C(=C/c2ccccc2)C1",
    "Study System": "UACC-62 melanoma",
    "log10(TGI)": 1.57
  },
  {
    "Compound": "Cc1cccc(C)c1NC(=O)C(Cc1c[nH]c2ccccc12)NC(=O)OCc1ccccc1 (configuration not stated)",
    "Study System": "UACC-62 melanoma",
    "log10(TGI)": 1.62
  },
  {
    "Compound": "CC1(C)OC2C(CO[Si](C)(C)C(C)(C)C)OC(n3c(I)c(C#C[Si](C)(C)C)c(=O)[nH]c3=O)C2O1 (configuration not stated)",
    "Study System": "UACC-62 melanoma",
    "log10(TGI)": 1.70
  },
  {
    "Compound": "Cc1ccc(C)c(NC(=O)c2cccc([N+](=O)[O-])c2O)c1",
    "Study System": "UACC-62 melanoma",
    "log10(TGI)": 1.92
  },
  {
    "Compound": "Cc1nc(Nc2ccc(Cl)cc2)sc1C(=O)NNC(=S)NN",
    "Study System": "UACC-62 melanoma",
    "log10(TGI)": 1.53
  },
  {
    "Compound": "COC(=O)c1c2c(c(C)[n+]([O-])c1C)C(=O)C=C(NCc1ccc(F)cc1)C2=O",
    "Study System": "UACC-62 melanoma",
    "log10(TGI)": 0.06
  }
]

###

- System: TK-10 renal
- Assay Summary: NCI tumour cell line growth inhibition, 48 h

[
  {
    "Compound": "CCCCCCCCCCCCCCCCNc1cccc2ccccc12",
    "TGI": "> 100 µM"
  },
  {
    "Compound": "CC1(C)COC(c2cccc3c2C(=O)c2cccc(Cl)c2-3)=N1",
    "TGI": "> 100 µM"
  },
  {
    "Compound": "CN1CCN(c2ccc(Nc3cc(-c4cccc(-n5ccc6cc(C7CC7)cc(F)c6c5=O)c4CO)cn(C)c3=O)nc2)CC1",
    "TGI": "14.3 µM"
  },
  {
    "Compound": "Cc1ccc(/C=N\\NC2c3cc(Cl)ccc3Nc3nc(=O)[nH]c(C)c32)cc1 (stereo unspecified)",
    "TGI": "> 100 µM"
  },
  {
    "Compound": "O=C1C=C/C(=N\\N=C(c2ccccc2)c2ccccc2)O1",
    "TGI": "> 10 µM"
  },
  {
    "Compound": "CC(C)SC(=S)Sc1c(Cl)c(Cl)nc(Cl)c1Cl",
    "TGI": "18.4 µM"
  }
]

###

Target or system MDA-MB-435; recorded quantity GI50.
Measured Quantity: GI50

[
  {
    "Molecule": "CC1(C)OC2C(CO[Si](C)(C)C(C)(C)C)OC(n3c(I)c(C#C[Si](C)(C)C)c(=O)[nH]c3=O)C2O1 (stereo unspecified)",
    "Result": "15.7 µM"
  },
  {
    "Molecule": "CC(NCCC(c1ccccc1)c1ccccc1)c1ccccc1 (stereo unspecified)",
    "Result": "2.54 µM"
  },
  {
    "Molecule": "COC(=O)c1ccc2c(c1)C(=O)c1c-2n(CCCN=[N+]=[N-])c(=O)c2cc(OC)c(OC)cc12",
    "Result": "> 100 µM"
  },
  {
    "Molecule": "C[n+]1c(/C=C/c2c(O)ccc3ccccc23)ccc2ccccc21",
    "Result": "5.84 µM"
  },
  {
    "Molecule": "O=C(Nc1ccc(Br)cc1F)c1cc(Cl)ccc1O",
    "Result": "0.71 µM"
  },
  {
    "Molecule": "S=c1[nH]c(=S)c2cc3ccccc3nc2[nH]1",
    "Result": "31.1 µM"
  }
]

###

- Test system: XF 498 CNS
- Assay Summary: NCI tumour cell line growth inhibition, 48 h
# TGI values compiled below

[
  {
    "Compound": "COc1cc(OC)c2c(=O)cc(-c3ccc(OC)c(OC)c3OC)oc2c1",
    "TGI": "> 100 µM"
  },
  {
    "Compound": "CCOC(=O)C1S/C(=N\\C(=N)N[N+](=O)[O-])N=C1C (stereo not given)",
    "TGI": "> 100 µM"
  },
  {
    "Compound": "COc1cccc(N2C(Cl)C(=O)C2c2c[nH]c3ccccc23)c1 (stereo not given)",
    "TGI": "> 100 µM"
  },
  {
    "Compound": "CC1(C)COC(c2cccc3c2C(=O)c2cccc(Cl)c2-3)=N1",
    "TGI": "> 100 µM"
  },
  {
    "Compound": "CCOC(=O)c1ccc(/C(C)=N/NC(N)=S)cc1",
    "TGI": "> 100 µM"
  },
  {
    "Compound": "O=C(/C(=C/c1ccc(Cl)cc1)c1ccccc1)c1ccccc1",
    "TGI": "34.5 µM"
  },
  {
    "Compound": "CCOC(=O)c1nc2c(OC)nn(O)cc-2c1[N+](=O)[O-]",
    "TGI": "29.6 µM"
  },
  {
    "Compound": "Cc1nc(Nc2ccc(Cl)cc2)sc1C(=O)NNC(=S)NN",
    "TGI": "38.4 µM"
  },
  {
    "Compound": "CN(C)C(=S)/N=c1\\sn(C)/c(=N\\C(=S)N(C)C)n1C",
    "TGI": "> 100 µM"
  },
  {
    "Compound": "Cc1ccccc1C(=O)c1cc(O)ccc1O",
    "TGI": "> 100 µM"
  }
]

###

- System: K-562 leukemia
- Assay Summary: NCI tumour cell line growth inhibition, 48 h
GI50 listing for selected compounds.

[
  {
    "Compound Structure": "CN(C)C1CCN(C(=O)c2ccc(NC(=O)Nc3ccc(-c4nc(N5CCOCC5)c5cccn5n4)cc3)cc2)CC1",
    "GI50": "0.224 µM"
  },
  {
    "Compound Structure": "O=c1oc2ccc(-c3ccc(F)cc3F)cc2c(=O)n1-c1cccc(C(F)(F)F)c1",
    "GI50": "1.2 µM"
  },
  {
    "Compound Structure": "O=C(c1ccco1)c1c(C(F)(F)F)nc2ccc(Cl)cc2[n+]1[O-]",
    "GI50": "33.2 µM"
  },
  {
    "Compound Structure": "O=C(NC[C@H](O)CN1CCc2ccccc2C1)c1cc(NC2COC2)ncn1",
    "GI50": "20.3 µM"
  },
  {
    "Compound Structure": "Cc1cc(N[C@@H]2CCC[C@H](Nc3ccnc4cc(Cl)ccc34)C2)nc(N2CCCCCC2)n1",
    "GI50": "0.359 µM"
  },
  {
    "Compound Structure": "Nc1ncc(-c2ccc3ncnc(Nc4ccc(F)c(Cl)c4)c3c2)cn1",
    "GI50": "3.25 µM"
  },
  {
    "Compound Structure": "O=C(Nc1cccc(C(F)(F)F)c1)c1ccc(NC2=C(Cl)C(=O)N(Cc3ccc(Cl)cc3Cl)C2=O)cc1",
    "GI50": "1.83 µM"
  },
  {
    "Compound Structure": "O=C(Cc1ccc(F)c(Cl)c1)Nc1cc(C2(C(F)(F)F)CC2)nn1CC1CCCCC1",
    "GI50": "4.28 µM"
  },
  {
    "Compound Structure": "S=c1[nH]c(=S)c2cc3ccccc3nc2[nH]1",
    "GI50": "> 100 µM"
  }
]
